# Test system: M. tuberculosis 103471
# ASSAY SUMMARY: Antimycobacterial activity, MIC in Middlebrook 7H9 broth (NCCLS procedure)
# Type: cell-based
# CONDITION SET: extracellular M. tuberculosis 103471
ENDPOINT NAME: M. tuberculosis 103471 MIC

See these solved cases before continuing.
- COMPOUND: "CO[C@H]1/C=C/O[C@@]2(C)Oc3c(C)c(O)c4c(O)c(c(/C=N/N5CCN(C)CC5)c(O)c4c3C2=O)NC(=O)/C(C)=C\\C=C\\[C@H](C)[C@H](O)[C@@H](C)[C@@H](O)[C@@H](C)[C@H](OC(C)=O)[C@@H]1C [Rifampin, reference compound]"
  M. tuberculosis 103471 MIC: "0.3 µg/mL"
- COMPOUND: "Cc1c(CN2CCSCC2)cc(-c2ccc(F)cc2)n1-c1ccccc1Cl [Compound 7a]"
  M. tuberculosis 103471 MIC: "2 µg/mL"
- COMPOUND: "Cc1c(CN2CCN(C)CC2)cc(-c2ccccc2Cl)n1-c1ccc(F)cc1 [Compound 6b]"
  M. tuberculosis 103471 MIC: "8 µg/mL"
- COMPOUND: "Cc1c(CN2CCN(C)CC2)cc(-c2ccc(F)cc2)n1-c1ccc(F)cc1F [Compound 7j]"
  M. tuberculosis 103471 MIC: "16 µg/mL"

Next compound, please.
// query # lookup: M. tuberculosis 103471 MIC of Cc1c(CN2CCSCC2)cc(-c2ccc(F)cc2)n1-c1cccc2ccccc12 [Compound 7k]
// result 4 µg/mL

###

Kindly supply the reported MNTD50 (μg/mL) VERO cells values for the records listed here.
# Tested on: VERO cells
# ASSAY SUMMARY: Cytotoxicity on Vero cell monolayers (MNTD50)
# Assay type: cell-based
# CONDITION SET: maximum 50% non-toxic dose, 5 days
Answers are plain numbers, in µg/mL.

See these solved cases before continuing.
- MOLECULE: "Cc1ccc(-c2cc(CN3CCSCC3)c(C)n2-c2ccc(F)cc2)cc1 [Compound 6e]"
  RESULT UNITS: "µg/mL"
  MNTD50 (μg/mL) VERO cells: 64
- MOLECULE: "Cc1c(CN2CCN(C)CC2)cc(-c2ccccc2F)n1-c1ccc(F)cc1 [Compound 6d]"
  RESULT UNITS: "µg/mL"
  MNTD50 (μg/mL) VERO cells: 4
- MOLECULE: "CO[C@H]1/C=C/O[C@@]2(C)Oc3c(C)c(O)c4c(O)c(c(/C=N/N5CCN(C)CC5)c(O)c4c3C2=O)NC(=O)/C(C)=C\\C=C\\[C@H](C)[C@H](O)[C@@H](C)[C@@H](O)[C@@H](C)[C@H](OC(C)=O)[C@@H]1C [Rifampin, reference compound]"
  RESULT UNITS: "µg/mL"
  MNTD50 (μg/mL) VERO cells: 64
- MOLECULE: "NNC(=O)c1ccncc1 [Isoniazid, reference compound]"
  RESULT UNITS: "µg/mL"
  MNTD50 (μg/mL) VERO cells: 32
- MOLECULE: "Cc1ccc(-c2cc(CN3CCN(C)CC3)c(C)n2-c2ccc(F)cc2)cc1 [Compound 6f]"
  RESULT UNITS: "µg/mL"
  MNTD50 (μg/mL) VERO cells: 8
- MOLECULE: "Cc1c(CN2CCSCC2)cc(-c2ccc(F)cc2)n1-c1ccccc1F [Compound 7c]"
  RESULT UNITS: "µg/mL"
  MNTD50 (μg/mL) VERO cells: 8

# batch size: 2; output MNTD50 (μg/mL) VERO cells per entry
1. Cc1ccc(-n2c(-c3ccc(F)cc3)cc(CN3CCN(C)CC3)c2C)cc1 [Compound 7f]
2. Cc1c(CN2CCN(C)CC2)cc(-c2ccc(F)cc2F)n1-c1ccc(F)cc1 [Compound 6j]

// result
8
8

# batch size: 2; output MNTD50 (μg/mL) VERO cells per entry
1. Cc1c(CN2CCSCC2)cc(-c2ccc(F)cc2F)n1-c1ccc(F)cc1 [Compound 6i]
2. Cc1c(CN2CCN(C)CC2)cc(-c2cccc3ccccc23)n1-c1ccc(F)cc1 [Compound 6l]

// result
1. 16
2. 4

Entry source: patent US8012970B2
